- measured_target: full-length human His-tagged BTK (Homo sapiens (Human), UniProt Q06187)
- Sequence (Q06187 whole entry): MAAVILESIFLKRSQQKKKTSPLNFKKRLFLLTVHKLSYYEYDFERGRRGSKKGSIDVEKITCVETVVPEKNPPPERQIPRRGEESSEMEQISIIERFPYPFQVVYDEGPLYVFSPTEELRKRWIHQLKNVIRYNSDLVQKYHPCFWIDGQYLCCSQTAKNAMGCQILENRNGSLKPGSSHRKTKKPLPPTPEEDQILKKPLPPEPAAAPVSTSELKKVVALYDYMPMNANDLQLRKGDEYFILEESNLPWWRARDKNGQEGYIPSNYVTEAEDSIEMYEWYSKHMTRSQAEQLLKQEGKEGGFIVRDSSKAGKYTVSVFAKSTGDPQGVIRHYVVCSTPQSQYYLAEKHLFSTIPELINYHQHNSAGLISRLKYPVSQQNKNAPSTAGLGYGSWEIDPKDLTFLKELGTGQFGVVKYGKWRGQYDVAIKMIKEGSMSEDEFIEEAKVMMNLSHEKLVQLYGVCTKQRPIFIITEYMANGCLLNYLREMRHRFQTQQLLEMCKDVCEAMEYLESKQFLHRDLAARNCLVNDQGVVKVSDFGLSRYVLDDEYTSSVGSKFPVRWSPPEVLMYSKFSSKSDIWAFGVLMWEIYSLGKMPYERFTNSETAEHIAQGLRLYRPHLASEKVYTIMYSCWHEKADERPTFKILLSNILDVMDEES
- measurement_description: BTK HTRF assay (Cisbio KinEASE-TK)
- Type: biochemical
- setup_conditions: 6 nM BTK, 15 min preincubation at 28° C., 30 uM ATP
Lab note: compare IC50 with 2 nM, writing criterion met if less and criterion not met if equal or more.

C=CC(=O)N1CC2(CC(n3nc(-c4ccc(Oc5ccccc5)nc4)c4c(N)ncnc43)C2)C1 [Example 8] :: criterion not met
CN(C)C/C=C/C(=O)N1CC2(CC(n3nc(-c4ccc(Oc5ccccc5)cn4)c4c(N)ncnc43)C2)C1 [Example 15] :: criterion not met
CN(C)C/C=C/C(=O)N1CC[C@]2(C1)C[C@@H](n1nc(-c3ccc(Oc4ccccc4)cn3)c3c(N)ncnc31)C2 [Example 16] :: criterion not met
C=CC(=O)N1CC2(CC(n3nc(-c4ccc(-c5cnc(Cc6ccccc6)n(C)c5=O)cc4F)c4c(N)ncnc43)C2)C1 [Example 6] :: criterion met
CN(C)C/C=C/C(=O)N1CC2(CC(n3nc(-c4ccc(Oc5ccccc5)cc4)c4c(N)ncnc43)C2)C1 [Example 2] :: criterion met
CN(C)C/C=C/C(=O)N1CC[C@]2(C1)C[C@H](n1nc(-c3ccc(Oc4ccccc4)cn3)c3c(N)ncnc31)C2 [Example 17] :: criterion not met
C=CC(=O)N1CCC2(CC(n3nc(-c4ccc(Oc5ccccc5)cc4)c4c(N)ncnc43)C2)C1 (stereo not drawn) [Example 5] :: criterion met
C=CC(=O)N1CC2(CC(n3nc(-c4ccc(Oc5ccccc5)cc4)c4c(N)ncnc43)C2)C1 [Example 1] :: criterion met

For CC#CC(=O)N1CC2(CC(n3nc(-c4ccc(Oc5ccccc5)cc4)c4c(N)ncnc43)C2)C1 [Example 3] , is the recorded IC50 below the cut-off of 2 nM? criterion met

====

- measured_target: full-length human His-tagged BTK (Homo sapiens (Human))
- measurement_description: BTK HTRF assay (Cisbio KinEASE-TK)
- Format: biochemical
- setup_conditions: 6 nM BTK, 15 min preincubation at 28° C., 30 uM ATP
Reported values of IC50 for individual entries
Return type: number; implicit unit nM.

CC#CC(=O)N1CC2(CC(n3nc(-c4ccc(Oc5ccccc5)nc4)c4c(N)ncnc43)C2)C1 :: 1.1
C/C=C/C(=O)N1CC2(CC(n3nc(-c4ccc(Oc5ccccc5)nc4)c4c(N)ncnc43)C2)C1 :: 83
Nc1ncnc2c1c(-c1ccc(Oc3ccccc3)cc1)nn2C1CC2(C1)CN(C(=O)C1CO1)C2 (stereo not shown) :: 13

Could you now look at the following compound, please?
Note down IC50 recorded for CC#CC(=O)N1CC[C@]2(C1)C[C@@H](n1nc(-c3ccc(Oc4ccccc4)cn3)c3c(N)ncnc31)C2 0.74

This collection of values is drawn from patent US8940893B2.
